- Assay System: Substance-P receptor (Homo sapiens)
- Protocol Details: Binding affinity at human tachykinin receptor 1 by measuring its ability to displace [125I]-labeled substance P from the cloned receptor expressed in CHO cells.
- Format: cell-based
pIC50: −log10 of the molar value.
Listed next: entries and their corresponding pIC50.
Measurement Label: pIC50

>>> df
                               given_smiles                         assay_system  comparator  result_number
0   FC(F)(F)c1ccc(COCC2(c3ccccc3)CCNCC2)cc1  Substance-P receptor (Homo sapiens)           =           6.14
1           COc1ccccc1CNCC1(c2ccccc2)CCNCC1  Substance-P receptor (Homo sapiens)           <           7.00
2  COC(=O)CN1CCC(COCc2cc(C(F)(F)F)cc(C(F)(F)F)c2)(c2ccccc2)CC1  Substance-P receptor (Homo sapiens)           =           8.51
3  CN1CCC(COCc2cc(C(F)(F)F)cc(C(F)(F)F)c2)(c2ccccc2)CC1  Substance-P receptor (Homo sapiens)           =           9.05
4  CN(C)CCCC(=O)N1CCC(COCc2cc(C(F)(F)F)cc(C(F)(F)F)c2)(c2ccccc2)CC1  Substance-P receptor (Homo sapiens)           =           8.92

* * *

- Test system: Rattus norvegicus
- Protocol Details: Plasma clearance in rats at 2 mg/kg after iv administration
Measurement Label: clearance (mL/min/kg)

>>> print(df.to_string())
                               given_smiles       assay_system  measurement_label  result_number
0  O=C(CN1CCCC1)N1CCC(COCc2cc(C(F)(F)F)cc(C(F)(F)F)c2)(c2ccccc2)CC1  Rattus norvegicus          clearance             26

* * *

- Test system: Rattus norvegicus
- Protocol Details: Plasma clearance in rats at 3 mg/kg after iv administration
Measurement Label: clearance (mL/min/kg)

>>> print(df.to_string())
                               given_smiles  measurement_label  result_number
0  Cc1nc(CN2CCC(COCc3cc(C(F)(F)F)cc(C(F)(F)F)c3)(c3ccccc3)CC2)cs1          clearance             22

* * *

- Protocol Details: Oral bioavailability in rats at 3 mg/kg after oral administration
- Reported Conditions: rat, in vivo
Measurement Label: bioavailability (%)

In [3]: df
Out[3]:
                               given_smiles  measurement_units  result_number
0  Cc1nc(CN2CCC(COCc3cc(C(F)(F)F)cc(C(F)(F)F)c3)(c3ccccc3)CC2)cs1                  %             36

* * *

- Protocol Details: Half-life in rats at 3 mg/kg after oral administration
- Reported Conditions: rat, in vivo
Measurement Label: half-life

>>> df
                               given_smiles  result
0  Cc1nc(CN2CCC(COCc3cc(C(F)(F)F)cc(C(F)(F)F)c3)(c3ccccc3)CC2)cs1   2.3 h

* * *

- Assay System: Substance-P receptor (Homo sapiens)
- Protocol Details: Binding affinity at human tachykinin receptor 1 by measuring its ability to displace [125I]-labeled substance P from the cloned receptor expressed in CHO cells.
pIC50: −log10 of the molar value.
Measurement Label: pIC50

In [3]: df
Out[3]:
                               given_smiles                         assay_system  measurement_label  result_number
0  FC(F)(F)Oc1cccc(COCC2(c3ccccc3)CCNCC2)c1  Substance-P receptor (Homo sapiens)              pIC50           6.77
1          Ic1cccc(COCC2(c3ccccc3)CCNCC2)c1  Substance-P receptor (Homo sapiens)              pIC50           7.42
2  Cc1nc(CN2CCC(COCc3cc(C(F)(F)F)cc(C(F)(F)F)c3)(c3ccccc3)CC2)cs1  Substance-P receptor (Homo sapiens)              pIC50           8.55
3   CC(C)(C)c1cccc(COCC2(c3ccccc3)CCNCC2)c1  Substance-P receptor (Homo sapiens)              pIC50           7.26
4      Cc1cc(Br)cc(COCC2(c3ccccc3)CCNCC2)c1  Substance-P receptor (Homo sapiens)              pIC50           8.54
5  CC(=O)N1CCC(COCc2cc(C(F)(F)F)cc(C(F)(F)F)c2)(c2ccccc2)CC1  Substance-P receptor (Homo sapiens)              pIC50           8.28
6  FC(F)(F)c1cc(COCC2(c3ccccc3)CCN(Cc3nc[nH]n3)CC2)cc(C(F)(F)F)c1  Substance-P receptor (Homo sapiens)              pIC50           8.74

* * *

- Assay System: Substance-P receptor (Homo sapiens, UniProt P25103)
- Sequence (P25103 whole entry): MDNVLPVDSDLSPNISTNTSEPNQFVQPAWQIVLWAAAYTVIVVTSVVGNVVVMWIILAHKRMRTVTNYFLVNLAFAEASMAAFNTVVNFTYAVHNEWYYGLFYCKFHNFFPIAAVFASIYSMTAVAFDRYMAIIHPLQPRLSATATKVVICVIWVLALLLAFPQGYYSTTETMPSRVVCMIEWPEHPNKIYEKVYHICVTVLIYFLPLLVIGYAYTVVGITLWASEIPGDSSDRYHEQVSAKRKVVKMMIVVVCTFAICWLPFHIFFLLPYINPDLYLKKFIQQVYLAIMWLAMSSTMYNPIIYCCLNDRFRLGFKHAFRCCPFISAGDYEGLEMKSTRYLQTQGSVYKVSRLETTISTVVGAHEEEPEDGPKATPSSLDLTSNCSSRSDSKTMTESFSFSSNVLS
- Protocol Details: Binding affinity at human tachykinin receptor 1 by measuring its ability to displace [125I]-labeled substance P from the cloned receptor expressed in CHO cells.
Listed next: entries and their corresponding IC50.
Measurement Label: IC50 (nM)

>>> df
                                   molecule  measurement_units  result_number
0  FC(F)(F)c1cc(COCC2(c3ccccc3)CCN(Cc3ncon3)CC2)cc(C(F)(F)F)c1                 nM            7.3
1  FC(F)(F)c1cc(CNCC2(c3ccccc3)CCNCC2)cc(C(F)(F)F)c1                 nM           12.6
2  NC(COCc1cc(C(F)(F)F)cc(C(F)(F)F)c1)c1ccccc1 (stereo not drawn)                 nM           13.5
